Target: GLP-1R (Homo sapiens)
Experiment: GLP-1R agonist cAMP stimulation assay (HTRF cAMP)
Conditions: HEK293 cell line expressing GLP-1 target; HTRF cAMP agonist mode, 30 min at RT
# label = bin(measured EC50), where bins are LOW: < 1 nM; MEDIUM: ≥ 1 nM and < 9 nM; HIGH: ≥ 9 nM

Q. Note: place this molecule into its band. Item: O=C(Nc1cc2[nH]c(=O)[nH]c2cc1F)c1ccc2c(c1)nc(CN1CCC(c3cccc(OCc4ccc(Cl)cc4F)n3)CC1)n2C[C@@H]1CCO1
A. HIGH

====

Reported log10(EC50) values follow for various compounds
Target: GLP-1R (Homo sapiens, UniProt P43220)
Sequence (P43220 24-463): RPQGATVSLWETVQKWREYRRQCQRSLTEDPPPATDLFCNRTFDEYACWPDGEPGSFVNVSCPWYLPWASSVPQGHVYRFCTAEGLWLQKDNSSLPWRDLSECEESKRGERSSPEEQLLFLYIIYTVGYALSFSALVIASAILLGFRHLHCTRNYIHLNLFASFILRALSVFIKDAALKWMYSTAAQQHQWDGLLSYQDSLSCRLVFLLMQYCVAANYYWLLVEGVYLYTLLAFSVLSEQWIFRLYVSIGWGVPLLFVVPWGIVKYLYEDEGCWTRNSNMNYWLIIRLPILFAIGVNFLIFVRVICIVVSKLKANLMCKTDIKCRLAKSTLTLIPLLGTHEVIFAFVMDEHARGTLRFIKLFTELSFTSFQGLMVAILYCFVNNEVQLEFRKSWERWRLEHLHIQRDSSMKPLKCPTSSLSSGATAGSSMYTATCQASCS
Assay: GLP-1R agonist cAMP stimulation assay (HTRF cAMP)
Conditions: HEK293 cell line expressing GLP-1 target; HTRF cAMP agonist mode, 30 min at RT
Form field - Quantity: EC50; Unit: nM; Scale: log10

| COMPOUND | SYSTEM_TESTED | VALUE_REPORTED |
| --- | --- | --- |
| Cc1cc(NC(=O)c2ccc3c(c2)nc(CN2CCC(c4cccc5c4OC(C)(c4ccc(Cl)cc4F)O5)CC2)n3C[C@@H]2CCO2)cc2[nH]c(=O)[nH]c12 (stereo partly shown) [Compound 339] | GLP-1R (Homo sapiens, UniProt P43220) | -0.41 |

Q. Output measured log10(EC50) for this item: N#Cc1n[nH]c2ccc(NC(=O)c3ccc4c(c3)nc(CN3CCC(c5cccc(OCc6ccc(Cl)cc6F)n5)CC3)n4C[C@@H]3CCO3)cc12 [Compound 82]
A. 2.06

Q. Specify measured log10(EC50) for Cc1nc2cccc(COc3cccc(C4=CCN(Cc5nc6cc(C(=O)Nc7ccc8[nH]nc(C)c8c7)ccc6n5C[C@@H]5CCO5)CC4)n3)c2s1 [Compound 369] .
A. 0.46

Q. For COCCn1c(CN2CCC(c3cccc(OCc4ccc(Cl)cc4F)n3)CC2)nc2cc(C(=O)NCCc3ccccc3O)ccc21 [Compound 18] , write its log10(EC50).
A. 2.61

Q. Answer with the recorded log10(EC50) of COCCn1c(CN2CCC(c3cccc(OCc4ccc(Cl)cc4F)n3)CC2)nc2cc(C(=O)NCc3ccc(C#N)cc3)ccc21 [Compound 30] only.
A. 3.14

Q. Identify measured log10(EC50) corresponding to COCCn1c(CN2CCC(c3cccc(OCc4ccc(Cl)cc4F)n3)CC2)nc2cc(C(=O)NC3Cc4cc(C)c(O)cc4C3)ccc21 (stereo not shown) [Compound 43]
A. 2.41

Q. Consider the compound Cc1n[nH]c2ccc(NC(=O)c3ccc4c(c3)nc(CN3CC=C(c5cccc6c5O[C@@](C)(c5ccc(Cl)cc5F)O6)CC3)n4C[C@@H]3CCO3)cc12 [Compound 5] . State its measured log10(EC50).
A. -0.92

====

Target: GLP-1R (Homo sapiens, UniProt P43220)
RECORDED_ENDPOINT: Ki (nM)
Unit nM implied. Number only.

Known results for molecules:
| MOLECULE | SYSTEM_TESTED | Ki / nM |
| --- | --- | --- |
| O=C(Nc1cc(F)c2c(c1)C1(CC1)C(=O)N2)c1ccc2c(c1)nc(CN1CC=C(c3cccc(OCc4ccc(Cl)cc4F)n3)CC1)n2C[C@@H]1CCO1 | GLP-1R (Homo sapiens, UniProt P43220) | 904 |
| Cc1n[nH]c2c(C)cc(C(=O)Nc3ccc4c(c3)nc(CN3CC=C(c5cccc(OCc6ccc(C#N)cc6F)n5)CC3)n4C[C@@H]3CCO3)cc12 | GLP-1R (Homo sapiens, UniProt P43220) | 75.9 |
| Cc1n[nH]c2c(C)cc(C(=O)Nc3ccc4c(c3)nc(CN3CC=C(c5cccc6c5O[C@](C)(c5ccc(Cl)cc5F)O6)CC3)n4CC3CCO3)cc12 (some centres unmarked) | GLP-1R (Homo sapiens, UniProt P43220) | 82.7 |
| O=C(Nc1ccc2c(c1)nc(CN1CC=C(c3cccc(OCc4ccc(Cl)cc4F)n3)CC1)n2C[C@@H]1CCO1)c1ccc2c(c1)C1(CC1)C(=O)N2 | GLP-1R (Homo sapiens, UniProt P43220) | 90.3 |
| Cc1n[nH]c2c(F)cc(NC(=O)c3ccc4c(c3)nc(CN3CCC(c5cccc(OCc6ccc(C#N)cc6F)n5)CC3)n4C[C@@H]3CCO3)cc12 | GLP-1R (Homo sapiens, UniProt P43220) | 806 |

Q. Give Ki only, for CCn1cncc1Cn1c(Cc2c(F)cc(-c3cccc4c3O[C@@](C)(c3ccc(Cl)cn3)O4)cc2F)nc2cc(NC(=O)c3cc(F)c4[nH]nc(C)c4c3)ccc21 , using GLP-1R (Homo sapiens, UniProt P43220) data.
A. 72.6

Q. Tell me Ki of Cc1n[nH]c2c(C)cc(NC(=O)c3ccc4c(c3)nc(CN3CCC(c5cccc6c5OC(C)(c5ccc(C#N)cc5F)O6)CC3)n4CC3CCO3)cc12 (centres unmarked) when tested on GLP-1R (Homo sapiens, UniProt P43220).
A. 615

Q. Provide the reported Ki (system: GLP-1R (Homo sapiens, UniProt P43220)) for Cc1n[nH]c2c(C)cc(NC(=O)c3ccc4c(c3)nc(CN3CCC(c5cccc(OCc6ccc(Cl)cc6F)n5)CC3)n4C[C@@H]3CCO3)cc12
A. 893

Q. State measured Ki of the molecule Cc1n[nH]c2c(C)cc(NC(=O)c3ccc4c(c3)nc(CN3CC=C(c5cccc(OCc6ccc(C#N)c7cc(Cl)oc67)n5)CC3)n4C[C@@H]3CCO3)cc12 with GLP-1R (Homo sapiens, UniProt P43220).
A. 1060

Q. Please tell me the measured Ki for Cc1n[nH]c2c(F)cc(NC(=O)c3ccc4c(c3)nc(CN3CCC(c5cccc6c5OC(C)(c5ccc(C#N)cc5F)O6)CC3)n4CC3CCO3)cc12 (centres unmarked) ; system: GLP-1R (Homo sapiens, UniProt P43220).
A. 692

====

Target: GLP-1R (Homo sapiens, UniProt P43220)
Assay: GLP-1R agonist cAMP stimulation assay (HTRF cAMP)
Conditions: HEK293 cell line expressing GLP-1 target; HTRF cAMP agonist mode, 30 min at RT
RECORDED_ENDPOINT: EC50 (nM)
# output: bare number, implied unit nM

| MOLECULE | EC50 (nM) |
| --- | --- |
| Cc1n[nH]c2cnc(C(=O)Nc3ccc4c(c3)nc(CN3CC=C(c5cccc(OCc6ccc(Cl)cc6F)n5)CC3)n4C[C@@H]3CCO3)nc12 [Compound 240] | 20.7 |

Q. // fetch EC50 for Cc1cc2c(C#N)ccc(COc3cccc(C4=CCN(Cc5nc6cc(C(=O)Nc7cc(F)c8[nH]nc(C)c8c7)ccc6n5C[C@@H]5CCO5)CC4)n3)c2s1 [Compound 350] ; system: GLP-1R (Homo sapiens, UniProt P43220)
A. 0.51

Q. Provide the reported EC50 (system: GLP-1R (Homo sapiens, UniProt P43220)) for Cc1n[nH]c2ccc(NC(=O)c3ccc4nc(CN5CC=C(c6cccc(OCc7ccc(C#N)cc7F)n6)CC5)n(CC5CCO5)c4c3)cc12 (stereo not drawn) [Compound 275]
A. 6.21

====

# EC50 annotations
Target: UniProt P43220
Assay: GLP-1R agonist cAMP stimulation assay (HTRF cAMP)
Conditions: HEK293 cell line expressing GLP-1 target; HTRF cAMP agonist mode, 30 min at RT
Give just the number in nM; leave the unit off.

Previously resolved entries follow.
| COMPOUND | EC50 [nM] |
| --- | --- |
| Cc1n[nH]c2ccc(C(=O)Nc3ccc4nc(CN5CC=C(c6cccc(OCc7ccc(Cl)cc7F)n6)CC5)n(CC5CCO5)c4c3)cc12 (stereo not drawn) | 3.18 |
| O=C(NCC(=O)N1C2CCC(C2)[C@H]1C(=O)O)c1ccc2c(c1)nc(CN1CCC(c3cccc(OCc4ccc(Cl)cc4F)n3)CC1)n2C[C@@H]1CCO1 (stereo partly drawn) | 7.2 |
| Cc1n[nH]c2c(F)cc(C(=O)Nc3ccc4c(c3)nc(CN3CC=C(c5cccc(OCc6cc(F)c(C#N)s6)n5)CC3)n4C[C@@H]3CCO3)cc12 | 0.85 |
| O=C(Nc1ccc2[nH]c(=O)[nH]c2n1)c1ccc2c(c1)nc(CN1CCC(c3cccc(OCc4ccc(Cl)cc4F)n3)CC1)n2C[C@@H]1CCO1 | 29.8 |
| CC(C)c1n[nH]c2ccc(NC(=O)c3ccc4c(c3)nc(CN3CC=C(c5cccc(OCc6ccc(Cl)cc6F)n5)CC3)n4C[C@@H]3CCO3)cc12 | 2.97 |

# context switch: different compound, same EC50
Q. # return recorded EC50 for entry O=C(Nc1ccc2[nH]ncc2c1)c1ccc2c(c1)nc(CN1CC=C(c3cccc(OCc4ccc(Cl)cc4F)n3)CC1)n2C[C@@H]1CCO1
A. 3.29
